- tgt: Proteasome subunit beta (Trypanosoma cruzi) (UniProt O96673)
- Sequence (whole entry): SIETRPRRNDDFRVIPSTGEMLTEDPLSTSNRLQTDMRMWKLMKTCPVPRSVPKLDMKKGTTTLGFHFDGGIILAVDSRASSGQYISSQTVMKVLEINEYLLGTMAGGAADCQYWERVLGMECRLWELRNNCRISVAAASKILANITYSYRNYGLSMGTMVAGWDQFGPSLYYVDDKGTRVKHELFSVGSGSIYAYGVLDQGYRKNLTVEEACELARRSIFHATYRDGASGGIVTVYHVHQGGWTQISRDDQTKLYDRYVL
- measurement.description: Trypanosoma cruzi proteasome chymotrypsin-like activity (TcProtChymo) assay. Also: in the data most compounds retested in dose-response had high values.
- Type: functional
- Design: scale not given: direction of the effect not stated beside the values
- assay.setup: 9.37 µM
Documented Percent Effect across a set of compounds
Write the number in % without appending the unit.

compound=CC(C)NC(=O)N1CCC(n2ccc(C(F)(F)F)n2)CC1 measured_value=5.32
compound=COCCN1C(=O)[C@]2(CC[C@@H]3CN(C(=O)NC4CCCC4)C[C@@H]32)N=C1C measured_value=6.84
compound="CCn1cnnc1CNC(=O)NC(C)C(C)C (stereo unspecified)" measured_value=12.5
compound="Cc1cc(C)n(CC(=O)NC(Cc2ccsc2)c2ccccn2)c(=O)n1 (stereo unspecified)" measured_value=9.2
compound=COc1cccc(OCC(=O)NS(=O)(=O)c2ccc(C)s2)c1 measured_value=10.4

Exam item: Could you share which Percent Effect value was measured for O=C([C@@H]1CC[C@@H]2[C@@H](CCN2Cc2cccc(F)c2)O1)N1CCCCO1 ?
Marked response: 9.23

Exam item: Entry NC(=O)C1CN(Cc2c[nH]cn2)CCN(C2CCOCC2)C1 (stereo unspecified) please
Marked response: 7.02

Exam item: Entry CN(C)S(=O)(=O)N1CCN(c2nccc(C(F)(F)F)n2)CC1 please
Marked response: 10.5

Exam item: Entry Cc1nc(CCCNC(=O)C2CC(=O)N(C(C)(C)C)C2)sc1C (stereo unspecified) please
Marked response: 7.79

Exam item: Entry CC(NC(=O)NCCCn1cncn1)c1ccc2c(c1)OCCO2 (stereo unspecified) please
Marked response: 14.2

Exam item: Entry CCOCCC(=O)N1CCCC(c2ncc[nH]2)C1 (stereo unspecified) please
Marked response: 4.97

---

- tgt: Proteasome subunit beta (Trypanosoma cruzi) (UniProt O96673)
- Sequence (whole entry): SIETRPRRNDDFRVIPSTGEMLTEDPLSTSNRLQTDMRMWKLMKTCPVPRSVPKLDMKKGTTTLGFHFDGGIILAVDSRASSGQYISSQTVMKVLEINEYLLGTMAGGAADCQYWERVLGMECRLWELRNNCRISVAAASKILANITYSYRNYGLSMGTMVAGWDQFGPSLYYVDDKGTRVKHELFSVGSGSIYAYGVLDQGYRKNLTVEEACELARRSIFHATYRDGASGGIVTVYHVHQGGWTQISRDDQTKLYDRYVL
- measurement.description: Trypanosoma cruzi proteasome chymotrypsin-like activity (TcProtChymo) assay. Also: in the data most compounds retested in dose-response had high values.
- Type: functional
- Design: scale not given: direction of the effect not stated beside the values
- assay.setup: 9.37 µM
Please use 1 for Percent Effect under 10% and 0 for everything else, ties included.

Would you please look over these solved cases?
molecule="CC(=O)N(C)c1nc(CN2CCCCC2Cn2cncn2)cs1 (centres undefined)" class=1
molecule="O=C(NC1CCS(=O)(=O)C1)N1CCN(c2cnccn2)CC1 (centres undefined)" class=0
molecule=CCN1CCN(c2ncc(-c3cc(C)no3)c(-c3ccoc3C)n2)CC1 class=1
molecule="O=C(CSCC1CC1)N1CCCC(c2nccn2Cc2ccncc2)C1 (centres undefined)" class=1

Exam item: Is 10% strictly greater than the molecule's reported Percent Effect? molecule: COc1ccnc(N2CCN(C(=O)CN3CCCC3=O)CC2)n1
Marked response: 1

Exam item: Entry CC(Cn1ccnc1)NC(=O)C1(c2ccc3c(c2)OCCO3)CCCC1 (centres undefined) please
Marked response: 0

Exam item: Entry O[C@H]1[C@H](n2cc(-c3cccnc3)nn2)c2ccccc2C12CCNCC2 please
Marked response: 1

Exam item: Entry CC(Cn1cccn1)NC(=O)NCCc1cnn(C)c1 (centres undefined) please
Marked response: 0

Exam item: Entry Cc1cnn(CC2CCCN2Cc2nc3ccccc3nc2C)c1 (centres undefined) please
Marked response: 0

Exam item: Entry Cc1[nH]ccc1C(=O)Nc1cccc(CN2CCC(O)CC2)c1 please
Marked response: 0

---

- tgt: Chromo domain-containing protein 1 (Saccharomyces cerevisiae (strain ATCC 204508 / S288c) (Baker's yeast)) (UniProt P32657)
- Sequence (P32657 whole entry, the tested form may be a part): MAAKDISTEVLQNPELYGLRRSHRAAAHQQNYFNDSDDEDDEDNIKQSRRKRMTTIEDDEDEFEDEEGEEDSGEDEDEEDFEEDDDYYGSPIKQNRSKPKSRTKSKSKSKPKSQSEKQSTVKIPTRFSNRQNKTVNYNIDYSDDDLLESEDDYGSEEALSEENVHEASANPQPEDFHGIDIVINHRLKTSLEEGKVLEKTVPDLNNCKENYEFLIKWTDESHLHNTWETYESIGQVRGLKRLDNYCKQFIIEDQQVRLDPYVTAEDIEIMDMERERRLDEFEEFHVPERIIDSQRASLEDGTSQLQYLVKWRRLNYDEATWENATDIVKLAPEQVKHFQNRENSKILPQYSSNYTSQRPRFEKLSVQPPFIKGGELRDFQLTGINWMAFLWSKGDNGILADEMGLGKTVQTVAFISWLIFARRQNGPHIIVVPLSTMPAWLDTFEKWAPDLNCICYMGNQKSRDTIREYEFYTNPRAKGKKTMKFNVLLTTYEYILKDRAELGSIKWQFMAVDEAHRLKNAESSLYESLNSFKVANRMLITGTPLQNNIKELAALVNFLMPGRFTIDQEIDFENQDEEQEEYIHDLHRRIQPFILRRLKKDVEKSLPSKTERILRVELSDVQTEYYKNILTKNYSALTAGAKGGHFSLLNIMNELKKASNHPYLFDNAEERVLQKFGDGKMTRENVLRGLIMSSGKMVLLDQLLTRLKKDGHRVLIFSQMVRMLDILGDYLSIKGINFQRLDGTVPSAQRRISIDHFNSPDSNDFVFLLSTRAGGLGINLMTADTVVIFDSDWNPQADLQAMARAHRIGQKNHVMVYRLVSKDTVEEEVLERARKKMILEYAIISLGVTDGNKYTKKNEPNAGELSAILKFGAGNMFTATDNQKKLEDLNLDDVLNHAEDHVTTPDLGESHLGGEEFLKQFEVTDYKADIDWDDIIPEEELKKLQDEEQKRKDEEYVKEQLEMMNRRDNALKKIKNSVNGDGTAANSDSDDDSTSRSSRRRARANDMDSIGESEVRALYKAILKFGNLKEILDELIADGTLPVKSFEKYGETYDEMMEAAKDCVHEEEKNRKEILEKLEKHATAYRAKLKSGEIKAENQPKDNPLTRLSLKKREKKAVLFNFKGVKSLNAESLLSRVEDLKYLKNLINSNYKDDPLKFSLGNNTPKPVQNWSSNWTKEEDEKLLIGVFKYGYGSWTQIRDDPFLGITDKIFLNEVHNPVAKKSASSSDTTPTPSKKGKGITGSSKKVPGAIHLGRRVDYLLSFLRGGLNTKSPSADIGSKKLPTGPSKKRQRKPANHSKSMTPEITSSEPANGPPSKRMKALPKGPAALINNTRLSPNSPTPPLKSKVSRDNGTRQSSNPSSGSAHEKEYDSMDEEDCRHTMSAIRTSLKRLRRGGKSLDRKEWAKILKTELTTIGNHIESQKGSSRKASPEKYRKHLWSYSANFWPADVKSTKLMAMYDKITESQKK
- measurement.description: ScCHD-1 Enzyme Inhibition Assay; also: in the data most compounds retested in dose-response had high values
- Format: functional
- Design: scale not given: direction of the effect not stated beside the values
- assay.setup: 30 µM
test.readout: Percent Effect (%)
Write the number in % without appending the unit.

Solved cases below.
compound=CCN1CCN(C(=O)c2ccn(C)c(=O)c2)CC1 measured_value=-16.7
compound="CCc1csc(C2CCCN(C(=O)c3ccnc(N(C)C)c3)C2)n1 (configuration not stated)" measured_value=-4.33
compound=Cc1ccc(NC(=O)N2CCN(Cc3noc(C4CC4)n3)CC2)cc1 measured_value=-24.6
compound=O=S(=O)(C1CC1)N1CCO[C@H]2[C@H](OCCN3CCCC3)CC[C@@H]21 measured_value=-11.8
compound=Cc1ccc(-n2nnc(CC(=O)N3CCOCC3)c2C)cc1 measured_value=-6.8

Exam item: Could you share which Percent Effect value was measured for O=C(NCc1cccnc1-n1cccn1)C1CC(=O)N(CC2CC2)C1 (configuration not stated) ?
Marked response: -13.5

Exam item: Entry Nc1nc2c(c(=O)[nH]1)CCN(C(=O)c1cccc3nccnc13)C2 please
Marked response: -0.6

Exam item: Entry CSC(C)(C)CNC(=O)NC1CCN(C)CC1 please
Marked response: -2.97

Exam item: Entry CSCC(=O)N1CCC2(CC1)c1ccccc1CC2O (configuration not stated) please
Marked response: -3.92

Exam item: Entry Cc1nn(C)c(C)c1C(=O)N1CCOCC1CC(=O)c1ccco1 (configuration not stated) please
Marked response: -0.43

Exam item: Entry Cn1c(Nc2cn[nH]c2)c(C#N)c(=O)n(C)c1=O please
Marked response: -4.94

Exam item: Entry C=Cn1ncc(CN2C[C@@H]3CCCN3C[C@@H]2Cc2ccccc2)c1C please
Marked response: -13

Exam item: Entry O=C(C1CCC1)N1CCN(C(=O)c2cnccn2)[C@H]2CS(=O)(=O)C[C@H]21 please
Marked response: -3.81

Exam item: Entry Cc1cnc2n(c1=O)CC(C(=O)Nc1cccc3cccnc13)CS2 (configuration not stated) please
Marked response: -2.86

Exam item: Entry O=C(c1ccc(F)c(Cl)c1)N1C[C@@H]2CC[C@H](C1)N(Cc1ccccc1)C2 please
Marked response: 0.975

Exam item: Entry CN(C)C(=O)CNC(=O)c1cc(Br)c2c(c1)OCCO2 please
Marked response: -4.33

Exam item: Entry CN(C)C(=O)C1CN(Cc2c[nH]cn2)CCN(C2CCOCC2)C1 (configuration not stated) please
Marked response: -11.5

Exam item: Entry COc1ccc(Cl)cc1C(=O)N1CCOC2(CNCCOC2)C1 (configuration not stated) please
Marked response: -2.64

---

- tgt: Tyrosyl-tRNA synthetase, putative (Trypanosoma cruzi (strain CL Brener)) (UniProt Q4DSP6)
- Sequence (Q4DSP6 as listed by the source): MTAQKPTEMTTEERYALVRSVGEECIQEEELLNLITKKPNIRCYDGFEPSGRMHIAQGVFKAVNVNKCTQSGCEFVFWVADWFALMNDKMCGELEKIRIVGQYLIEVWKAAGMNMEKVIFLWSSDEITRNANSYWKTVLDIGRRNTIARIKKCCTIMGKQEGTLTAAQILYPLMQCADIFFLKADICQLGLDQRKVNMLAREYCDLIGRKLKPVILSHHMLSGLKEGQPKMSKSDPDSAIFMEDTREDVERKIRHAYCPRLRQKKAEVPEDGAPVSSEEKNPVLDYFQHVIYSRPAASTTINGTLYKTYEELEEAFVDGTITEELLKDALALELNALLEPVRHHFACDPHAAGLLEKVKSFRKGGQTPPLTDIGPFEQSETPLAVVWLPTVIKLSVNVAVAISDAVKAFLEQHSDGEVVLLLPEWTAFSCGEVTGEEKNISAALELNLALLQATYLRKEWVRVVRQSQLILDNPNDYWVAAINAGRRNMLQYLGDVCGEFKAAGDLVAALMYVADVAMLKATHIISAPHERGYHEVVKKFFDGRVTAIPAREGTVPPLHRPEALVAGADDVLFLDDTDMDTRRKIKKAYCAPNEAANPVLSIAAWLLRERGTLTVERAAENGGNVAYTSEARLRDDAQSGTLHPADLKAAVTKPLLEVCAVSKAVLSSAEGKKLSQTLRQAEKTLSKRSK
- measurement.description: Trypanosoma cruzi tyrosyl tRNA synthetase (TcYRS) _High Tyrosine SOP; also: in the data most compounds retested in dose-response had high values
- Assay type: functional
- Design: scale not given: direction of the effect not stated beside the values
- assay.setup: 30 µM
So basically: Percent Effect at 4% or higher? That is Condition met. Lower than 4%? That is Condition not met.

molecule=CCc1nc(CN2CCCN(c3nccs3)CC2)no1 class="Condition not met"
molecule="Cc1nn(C)c(C)c1C1COCCN1C(=O)c1n[nH]c2ccccc12 (configuration not stated)" class="Condition met"
molecule="Cc1cnn(CC2CCCCN2C(=O)Cc2csc(C)n2)c1 (configuration not stated)" class="Condition not met"
molecule=COc1ccc(NCc2nc(=O)n(CCC(C)C)[nH]2)cc1 class="Condition met"
molecule="Clc1ccccc1CN1CCc2nc(C3CCCCN3)ncc2C1 (configuration not stated)" class="Condition met"

Exam item: Record CN(C)C(=O)CS(=O)(=O)Cc1cc(Cl)c2c(c1)OCO2 ; criterion: Percent Effect no lower than 4%. Met?
Marked response: Condition met

Exam item: Entry COC(=O)c1cccn1C1CCN(C(=O)c2cn[nH]c2C)CC1 please
Marked response: Condition met

Exam item: Entry Cc1noc(CN2Cc3ccccc3CC2c2nnc(C)o2)n1 (configuration not stated) please
Marked response: Condition not met

---

- tgt: Ubiquitin-activating enzyme e1, putative (Leishmania donovani (strain BPK282A1))
- Sequence (whole entry): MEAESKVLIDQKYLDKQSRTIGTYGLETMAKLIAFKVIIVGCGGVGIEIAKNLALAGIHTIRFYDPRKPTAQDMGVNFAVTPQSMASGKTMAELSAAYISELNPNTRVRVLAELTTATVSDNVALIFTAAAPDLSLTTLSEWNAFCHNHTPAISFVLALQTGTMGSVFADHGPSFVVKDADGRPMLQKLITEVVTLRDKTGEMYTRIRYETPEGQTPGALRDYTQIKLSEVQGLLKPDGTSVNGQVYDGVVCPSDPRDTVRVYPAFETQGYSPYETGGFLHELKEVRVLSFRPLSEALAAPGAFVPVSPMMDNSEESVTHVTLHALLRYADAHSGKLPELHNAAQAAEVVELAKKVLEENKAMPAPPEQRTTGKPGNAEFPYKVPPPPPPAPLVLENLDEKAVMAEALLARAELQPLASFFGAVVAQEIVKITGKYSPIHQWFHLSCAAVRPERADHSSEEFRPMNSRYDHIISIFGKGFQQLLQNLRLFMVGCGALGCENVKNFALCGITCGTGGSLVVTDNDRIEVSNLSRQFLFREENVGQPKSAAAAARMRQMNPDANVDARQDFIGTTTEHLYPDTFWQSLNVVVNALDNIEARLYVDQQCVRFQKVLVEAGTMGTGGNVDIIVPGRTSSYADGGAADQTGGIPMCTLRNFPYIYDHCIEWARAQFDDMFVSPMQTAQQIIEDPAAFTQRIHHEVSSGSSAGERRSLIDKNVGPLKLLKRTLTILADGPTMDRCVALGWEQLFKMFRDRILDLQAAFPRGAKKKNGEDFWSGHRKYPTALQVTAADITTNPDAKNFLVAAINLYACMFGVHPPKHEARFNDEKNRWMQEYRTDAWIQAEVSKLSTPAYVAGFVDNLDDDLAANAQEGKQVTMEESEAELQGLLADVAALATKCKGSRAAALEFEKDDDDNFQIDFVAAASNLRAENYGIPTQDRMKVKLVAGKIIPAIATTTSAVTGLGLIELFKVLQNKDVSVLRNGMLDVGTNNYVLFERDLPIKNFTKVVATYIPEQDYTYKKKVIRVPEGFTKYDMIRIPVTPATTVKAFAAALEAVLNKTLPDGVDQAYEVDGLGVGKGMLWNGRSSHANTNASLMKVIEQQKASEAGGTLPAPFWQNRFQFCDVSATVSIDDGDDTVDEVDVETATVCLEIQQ
- measurement.description: Leishmania donovani Ubiquitin Activating Enzyme (LdE1)
- Type: functional
- Set-up: scale not given: direction of the effect not stated beside the values
- assay.setup: 30 µM
Potency and affinity values are given separately.
Documented Percent Effect across a set of compounds
Write the number in % without appending the unit.

Solved cases below.
compound=O=C1CCCN1Cc1ncn2c1CN(C(=O)c1cccc(F)c1)CCC2 unit_annotation=% measured_value=16.2
compound=O=C([C@H]1COC[C@H]2CN(C3CCCC3)C[C@H]21)N1CCCCO1 unit_annotation=% measured_value=0
compound="O=C(CCC(=O)N1CCCC1c1cccs1)N1CCc2sccc2C1 (stereo unspecified)" unit_annotation=% measured_value=-8.11
compound=O=C(O)[C@@H]1CN(C(=O)c2ccc3[nH]nnc3c2)C[C@H]1c1cccc(F)c1 unit_annotation=% measured_value=11
compound="CC(NC(=O)c1cc(-c2cccc(Cl)c2)no1)C(=O)N1CCCC1 (stereo unspecified)" unit_annotation=% measured_value=0
compound=O=c1ccc2c(n1CCN1CCCC1)CCN(Cc1ccoc1)CC2 unit_annotation=% measured_value=8.22
compound="CN(C)C(=O)CN1CCCC2(CCN(c3ccsc3)C2=O)C1 (stereo unspecified)" unit_annotation=% measured_value=10.7
compound=O=C(NC1(c2cccc(F)c2)CCOCC1)c1ccccn1 unit_annotation=% measured_value=2.6

Exam item: Could you share which Percent Effect value was measured for Cc1cnn(CC2CCCCN2C(=O)CN(C)C2CC2)c1 (stereo unspecified) ?
Marked response: 26.6

Exam item: Entry CC(NCc1cccnc1)c1ccc(OCC(=O)NC2CC2)cc1 (stereo unspecified) please
Marked response: 1.27

Exam item: Entry O=C(CSCC1CC1)N1CCCC(c2nccn2Cc2ccncc2)C1 (stereo unspecified) please
Marked response: 15.3

Values from ChEMBL document CHEMBL3988442
